Listed binders paired with reported ELISA value (wash 3x every hour for 4 HRS)
Target: T1, Proleukin® (aldesleukin) (human, UniProt P60568 21-153, limits assumed)
T1 construct: Variant of human wt IL-2 with C145S (C125S on mature IL-2); also called IL-2 (Proleukin®); human IL-2 (Proleukin)
T1 sequence (P60568 other isoform, or with tags, fused parts or gaps limits assumed): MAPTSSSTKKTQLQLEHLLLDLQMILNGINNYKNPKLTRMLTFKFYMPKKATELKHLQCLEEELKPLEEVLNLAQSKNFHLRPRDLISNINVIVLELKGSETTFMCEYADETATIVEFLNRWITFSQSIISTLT
Experiment: ELISA, coated Proleukin, HEK293F supernatant 1:2
Quick note: give the figure in luminescence signal, leave out the unit.

Req: Entry Antibody No: 2 (antibody, human IgG1, kappa, N297A, V domains shown, VH WT; VK M33L; HEK293F supernatant) VH: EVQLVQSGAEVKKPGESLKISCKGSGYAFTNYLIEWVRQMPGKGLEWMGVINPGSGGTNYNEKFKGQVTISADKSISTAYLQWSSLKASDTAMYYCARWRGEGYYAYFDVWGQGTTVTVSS VL: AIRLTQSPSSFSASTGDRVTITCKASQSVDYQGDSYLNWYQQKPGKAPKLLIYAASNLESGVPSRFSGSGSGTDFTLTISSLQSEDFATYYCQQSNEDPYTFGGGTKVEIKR has what ELISA value (wash 3x every hour for 4 HRS)?
Resp: 1230

Req: Entry Antibody No: 26 (antibody, human IgG1, kappa, N297A, V domains shown, VH N58Y + T30S; VK WT; HEK293F supernatant; 108929 is kept apart) VH: EVQLVQSGAEVKKPGESLKISCKGSGYAFSNYLIEWVRQMPGKGLEWMGVINPGSGGTYYNEKFKGQVTISADKSISTAYLQWSSLKASDTAMYYCARWRGEGYYAYFDVWGQGTTVTVSS VL: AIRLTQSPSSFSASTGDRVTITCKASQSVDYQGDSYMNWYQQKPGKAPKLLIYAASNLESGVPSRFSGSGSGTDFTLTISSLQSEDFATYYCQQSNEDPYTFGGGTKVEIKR has what ELISA value (wash 3x every hour for 4 HRS)?
Resp: 4210

Req: Entry Antibody No: 31 (antibody, human IgG1, kappa, N297A, V domains shown, VK WT; HEK293F supernatant) VH: EVQLVQSGAEVKKPGESLKISCKGSGYAFSNYLIEWVRQMPGKGLEWMGVINPGSGGTYYNEKFKGQVTISADKSISTAYLQWSSLKASDTAMYYCARWRGEGYYAYYDVWGQGTTVTVSS VL: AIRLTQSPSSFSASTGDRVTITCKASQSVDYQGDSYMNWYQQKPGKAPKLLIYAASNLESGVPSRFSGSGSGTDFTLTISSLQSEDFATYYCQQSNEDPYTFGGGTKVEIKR has what ELISA value (wash 3x every hour for 4 HRS)?
Resp: 10300

Req: Entry Antibody No: 15 (antibody, human IgG1, kappa, N297A, V domains shown, VH N58Y; VK M33L + A50S; also called 108926) VH: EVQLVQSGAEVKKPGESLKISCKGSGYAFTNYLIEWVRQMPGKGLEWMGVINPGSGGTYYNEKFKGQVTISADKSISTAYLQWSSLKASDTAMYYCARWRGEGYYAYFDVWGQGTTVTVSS VL: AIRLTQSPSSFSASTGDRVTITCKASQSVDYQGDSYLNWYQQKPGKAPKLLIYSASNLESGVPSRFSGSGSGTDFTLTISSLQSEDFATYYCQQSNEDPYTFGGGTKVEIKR has what ELISA value (wash 3x every hour for 4 HRS)?
Resp: 10500

Req: Entry Antibody No: 11 (antibody, human IgG1, kappa, N297A, V domains shown, VH N58Y; VK WT; HEK293F supernatant) VH: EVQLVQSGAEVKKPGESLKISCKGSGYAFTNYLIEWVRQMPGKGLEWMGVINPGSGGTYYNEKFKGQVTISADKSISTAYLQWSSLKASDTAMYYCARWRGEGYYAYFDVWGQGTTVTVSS VL: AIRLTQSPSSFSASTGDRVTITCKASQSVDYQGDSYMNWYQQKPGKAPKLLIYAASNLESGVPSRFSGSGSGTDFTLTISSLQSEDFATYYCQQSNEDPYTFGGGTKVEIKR has what ELISA value (wash 3x every hour for 4 HRS)?
Resp: 10500
